Listed here: items and their measured IC50 (read off the curve), % Inhibition.
- system name: human complement Component 5 (C5) (human, UniProt P01031 19-1676, limits assumed)
- Sequence (P01031 19-1676 limits assumed): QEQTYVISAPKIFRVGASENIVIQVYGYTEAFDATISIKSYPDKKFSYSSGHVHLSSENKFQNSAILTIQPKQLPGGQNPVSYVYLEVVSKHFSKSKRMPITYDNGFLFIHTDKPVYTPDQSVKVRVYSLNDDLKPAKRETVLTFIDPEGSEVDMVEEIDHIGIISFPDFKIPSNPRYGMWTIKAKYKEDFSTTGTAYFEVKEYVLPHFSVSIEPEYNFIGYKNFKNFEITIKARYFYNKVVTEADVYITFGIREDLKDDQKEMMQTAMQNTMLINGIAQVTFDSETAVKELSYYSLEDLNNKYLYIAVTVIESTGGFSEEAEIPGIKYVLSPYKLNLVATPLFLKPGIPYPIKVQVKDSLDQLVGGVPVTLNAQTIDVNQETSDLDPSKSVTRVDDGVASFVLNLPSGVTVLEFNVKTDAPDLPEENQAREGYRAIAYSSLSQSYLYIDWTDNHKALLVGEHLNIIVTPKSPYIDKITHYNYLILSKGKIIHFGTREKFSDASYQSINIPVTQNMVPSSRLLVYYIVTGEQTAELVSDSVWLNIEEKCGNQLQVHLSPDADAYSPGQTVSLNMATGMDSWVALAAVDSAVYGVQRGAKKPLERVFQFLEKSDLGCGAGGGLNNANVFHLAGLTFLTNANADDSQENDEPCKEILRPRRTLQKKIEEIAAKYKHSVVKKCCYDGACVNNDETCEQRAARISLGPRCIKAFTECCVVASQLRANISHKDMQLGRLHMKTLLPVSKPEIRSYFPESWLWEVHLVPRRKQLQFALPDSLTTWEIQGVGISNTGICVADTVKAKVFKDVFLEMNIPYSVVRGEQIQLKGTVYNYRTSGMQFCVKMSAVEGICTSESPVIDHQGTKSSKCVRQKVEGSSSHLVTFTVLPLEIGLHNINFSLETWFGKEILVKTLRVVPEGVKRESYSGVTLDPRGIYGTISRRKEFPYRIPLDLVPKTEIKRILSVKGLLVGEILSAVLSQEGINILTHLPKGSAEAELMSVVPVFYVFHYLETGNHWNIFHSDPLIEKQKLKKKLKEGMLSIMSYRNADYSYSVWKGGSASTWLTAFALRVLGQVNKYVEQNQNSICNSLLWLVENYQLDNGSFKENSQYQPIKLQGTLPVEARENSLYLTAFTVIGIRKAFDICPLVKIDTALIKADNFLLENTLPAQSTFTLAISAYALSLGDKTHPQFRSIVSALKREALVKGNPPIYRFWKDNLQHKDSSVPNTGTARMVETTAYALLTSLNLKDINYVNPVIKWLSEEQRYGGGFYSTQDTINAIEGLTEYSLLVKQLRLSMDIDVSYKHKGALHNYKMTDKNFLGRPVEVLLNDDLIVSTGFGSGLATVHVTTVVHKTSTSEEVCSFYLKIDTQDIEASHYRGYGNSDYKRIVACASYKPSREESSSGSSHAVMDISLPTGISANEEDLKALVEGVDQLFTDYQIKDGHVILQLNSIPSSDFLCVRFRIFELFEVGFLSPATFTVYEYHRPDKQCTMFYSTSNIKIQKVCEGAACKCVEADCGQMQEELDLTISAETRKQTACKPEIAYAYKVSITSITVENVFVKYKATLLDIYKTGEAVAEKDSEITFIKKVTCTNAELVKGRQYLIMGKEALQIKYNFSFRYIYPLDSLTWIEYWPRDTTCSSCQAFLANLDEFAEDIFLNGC
- procedure details: cell-based or functional assay

- binder: "H5L4-IgG (antibody, V domains shown) VH: QVQLKQSGAEVKKPGASVKVSCKASGYTFTDEYMNWVRQAPGKSLEWMGYINPNNGGADYNQKFQGRVTMTVDQSISTAYMELSRLRSDDTAVYFCARLGYSNPYFDFWGQGTLVTVSS VL: DIVLTQSPATLSLSPGERATLSCRASQDVNTAVAWYQQKPGKSPKLLIYWASTRHTGVPARFTGSGSGTDYTLTISSLQPEDFAVYFCQQHHVSPWTFGGGTKVEIK"
  parameter measured: "IC50 (read off the curve), % Inhibition"
  result value: "~3 µg/mL"

Now consider the entry below.
*Q* Please report IC50 (read off the curve), % Inhibition for the following binder: H1L2-IgG (antibody, V domains shown) VH: QVQLVQSGAEVKKPGASVKVSCKASGYTFTDEYMNWVRQAPGQSLEWMGYINPNNGGADYNQKFQGRVTMTVDQSISTAYMELSRLRSDDTAVYFCARLGYSNPYFDFWGQGTLVTVSS VL: DIVLTQSPATLSLSPGERATLSCRASQDVNTAVAWYQQKPDQSPKLLIYWASTRHTGVPARFTGSGSGTDYTLTISSLQPEDFAVYFCQQHHVSPWTFGGGTKVEIK
*A* ~3 µg/mL
